src = ChEMBL document CHEMBL1687712

I'd appreciate it if you could supply Activity values for the items below.
Test system: Woodchuck hepatitis virus
Method: Antiviral activity against Woodchuck hepatitis virus infected in woodchuck assessed as reduction of viral antigen level in serum at 15 mg/kg, po qd measured on 36th week on 48 weeks study (reference value: 3.8 +/- 1.3 log10 ng/ml)
Type: functional
Answer in log10ng/ml, number only, no unit symbol.

# Activity of CC(C)(C)C(=O)OCOP(=O)(COCCn1cnc2c(N)ncnc21)OCOC(=O)C(C)(C)C [ADEFOVIR DIPIVOXIL] = 4.8

# Activity of Nc1ccn([C@@H]2CS[C@H](CO)O2)c(=O)n1 [LAMIVUDINE] = 5.2

# Activity of Nc1nc(=O)n([C@@H]2CS[C@H](CO)O2)cc1F [EMTRICITABINE] = 4.5

# Activity of CC(C)OC(=O)OCOP(=O)(CO[C@H](C)Cn1cnc2c(N)ncnc21)OCOC(=O)OC(C)C.O=C(O)/C=C/C(=O)O [TENOFOVIR DISOPROXIL FUMARATE] = 2.9
